B1: PSD2 (parent)
chain: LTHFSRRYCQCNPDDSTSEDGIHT

# Variants of: B1
# assay_protocol: protein stability index of a GFP-peptide fusion (GPS, HEK-293T) (PSI 1-6); higher = more stable;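 further: lentivirally expressed fusions sorted by FACS into six bins by GFP to DsRed ratio, PSI derived from sequencing read proportions per bin multiplied by bin number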
# conditions: c terminus: a fixed tail appended
I would appreciate it if you labelled entries 1 when protein stability index is 3 or higher, otherwise -1.

Y8L :: 1

Q: I'd appreciate it if you could say whether `R7A` has protein stability index at least equal to 3.
Result: 1

Q: I'd appreciate it if you could say whether `Y8D` has protein stability index at least equal to 3.
Result: 1

Q: I'd appreciate it if you could say whether `L1D` has protein stability index at least equal to 3.
Result: 1

Q: I'd appreciate it if you could say whether `L1I` has protein stability index at least equal to 3.
Result: 1
